test system: 876862-298-R-J1-PDC complex spheroids, viability % test/control; assay: Anticancer human tumor 876862-298-R-J1-PDC patient-derived endometrial carcinoma cell line growth inhibition [CLK]; conditions: curve of first compound; second compound 10 µM
pIC50: −log10 of the molar value.
assay metric: pIC50

Consider the worked cases shown below.
C=CC(=O)N1CCN(c2nc(=O)n(-c3c(C)ccnc3C(C)C)c3nc(-c4c(O)cccc4F)c(F)cc23)C(C)C1 (stereo unspecified) + CN1CCN(c2cc(C(=O)Nc3cc4cc(-c5cnn(C)c5)ccc4cn3)ccn2)CC1	> 7.50
CC(CO)NC(=O)c1cc(-c2ccc(Cl)cc2)nn(-c2cnn(C)c2)c1=O (stereo unspecified) + CN1CCN(c2cc(C(=O)Nc3cc4cc(-c5cnn(C)c5)ccc4cn3)ccn2)CC1	> 7.50
COc1cccc2c1C(=O)c1c(O)c3c(c(O)c1C2=O)CC(O)(C(=O)CO)CC3OC1CC(N)C(O)C(C)O1 (stereo unspecified) + CN1CCN(c2cc(C(=O)Nc3cc4cc(-c5cnn(C)c5)ccc4cn3)ccn2)CC1	> 7.50
CC1COCCN1c1cc(C2(S(C)(=N)=O)CC2)nc(-c2ccnc3[nH]ccc23)n1 (stereo unspecified) + CNC(=O)c1ccc(Nc2nc(OC3CCCC3)c3c(-c4ccc5nc(C)oc5c4)c[nH]c3n2)c(OC)c1	> 7.50
C=C(F)C(=O)N1CCN(c2nc(OCC3CCCN3C)nc3c2CCN(c2cccc4cccc(Cl)c24)C3)CC1CC#N (stereo unspecified) + CNC(=O)c1ccc(Nc2nc(OC3CCCC3)c3c(-c4ccc5nc(C)oc5c4)c[nH]c3n2)c(OC)c1	> 7.50
CCc1c2c(nc3ccc(O)cc13)-c1cc3c(c(=O)n1C2)COC(=O)[C@]3(O)CC + CN1CCN(c2cc(C(=O)Nc3cc4cc(-c5cnn(C)c5)ccc4cn3)ccn2)CC1	> 8.50

Items follow; give pIC50 for each.
1. NC(=O)C(=Cn1cnc(-c2cc(C(F)(F)F)cc(C(F)(F)F)c2)n1)c1cncnc1 + CNC(=O)c1ccc(Nc2nc(OC3CCCC3)c3c(-c4ccc5nc(C)oc5c4)c[nH]c3n2)c(OC)c1
2. O=C(c1cc(Cc2n[nH]c(=O)c3ccccc23)ccc1F)N1CCN(C(=O)C2CC2)CC1 + CNC(=O)c1ccc(Nc2nc(OC3CCCC3)c3c(-c4ccc5nc(C)oc5c4)c[nH]c3n2)c(OC)c1
3. CC(Nc1ccc2c(c1)OCCn1cc(N3C(=O)OCC3C(F)F)nc1-2)C(N)=O (stereo unspecified) + CNC(=O)c1ccc(Nc2nc(OC3CCCC3)c3c(-c4ccc5nc(C)oc5c4)c[nH]c3n2)c(OC)c1
4. COc1ccc([C@@H](O)c2cc(-c3ncnc4cc(N5CCOCC5)ccc34)c(F)cc2Cl)nn1 + CN1CCN(c2cc(C(=O)Nc3cc4cc(-c5cnn(C)c5)ccc4cn3)ccn2)CC1
5. CC(CO)NC(=O)c1cc(-c2ccc(Cl)cc2)nn(-c2cnn(C)c2)c1=O (stereo unspecified) + CNC(=O)c1ccc(Nc2nc(OC3CCCC3)c3c(-c4ccc5nc(C)oc5c4)c[nH]c3n2)c(OC)c1

["> 8.02", "> 7.50", "> 7.50", "> 7.50", "> 7.50"]

----------
tested on: 876862-298-R-J1-PDC complex spheroids, viability % test/control; assay: Anticancer human tumor 876862-298-R-J1-PDC cell line growth inhibition [CLK]; settings: second compound 10 µM; first compound 10 µM; stronger effect = lower value;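 note: spheroids exposed to drugs for 7 days before readout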;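 for viability, T/C: 100% = DMSO vehicle control wells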
assay metric: viability, T/C (%)
Answers are plain numbers, in %.

Consider the worked cases shown below.
O=C(c1cc(Cc2n[nH]c(=O)c3ccccc23)ccc1F)N1CCN(C(=O)C2CC2)CC1 + CNC(=O)c1ccc(Nc2nc(OC3CCCC3)c3c(-c4ccc5nc(C)oc5c4)c[nH]c3n2)c(OC)c1	14.6
C#Cc1c(F)ccc2cc(O)cc(-c3ncc4c(N5CC6CCC(C5)N6)nc(OCC56CCCN5CC(F)C6)nc4c3F)c12 (stereo not given) + CNC(=O)c1ccc(Nc2nc(OC3CCCC3)c3c(-c4ccc5nc(C)oc5c4)c[nH]c3n2)c(OC)c1	19.4
C=C(F)C(=O)N1CCN(c2nc(OCC3CCCN3C)nc3c2CCN(c2cccc4cccc(Cl)c24)C3)CC1CC#N (stereo not given) + CN1CCN(c2cc(C(=O)Nc3cc4cc(-c5cnn(C)c5)ccc4cn3)ccn2)CC1	1.23
Nc1ccccc1NC(=O)c1ccc(CNC(=O)OCc2cccnc2)cc1 + CNC(=O)c1ccc(Nc2nc(OC3CCCC3)c3c(-c4ccc5nc(C)oc5c4)c[nH]c3n2)c(OC)c1	0.74
CC(=O)O[C@H]1C(=O)[C@@]2(C)[C@H]([C@H](OC(=O)c3ccccc3)[C@]3(O)C[C@H](OC(=O)[C@H](O)[C@@H](NC(=O)c4ccccc4)c4ccccc4)C(C)=C1C3(C)C)[C@]1(OC(C)=O)CO[C@@H]1C[C@@H]2O + CNC(=O)c1ccc(Nc2nc(OC3CCCC3)c3c(-c4ccc5nc(C)oc5c4)c[nH]c3n2)c(OC)c1	30

Items follow; give viability, T/C for each.
1. COc1cccc2c1C(=O)c1c(O)c3c(c(O)c1C2=O)CC(O)(C(=O)CO)CC3OC1CC(N)C(O)C(C)O1 (stereo not given) + CNC(=O)c1ccc(Nc2nc(OC3CCCC3)c3c(-c4ccc5nc(C)oc5c4)c[nH]c3n2)c(OC)c1
2. Nc1ccccc1NC(=O)c1ccc(CNC(=O)OCc2cccnc2)cc1 + CN1CCN(c2cc(C(=O)Nc3cc4cc(-c5cnn(C)c5)ccc4cn3)ccn2)CC1
3. C=CC(=O)N1CCN(c2nc(=O)n(-c3c(C)ccnc3C(C)C)c3nc(-c4c(O)cccc4F)c(F)cc23)C(C)C1 (stereo not given) + CNC(=O)c1ccc(Nc2nc(OC3CCCC3)c3c(-c4ccc5nc(C)oc5c4)c[nH]c3n2)c(OC)c1
4. O=c1[nH]cc(F)c(=O)[nH]1 + CNC(=O)c1ccc(Nc2nc(OC3CCCC3)c3c(-c4ccc5nc(C)oc5c4)c[nH]c3n2)c(OC)c1
5. CC1(C)CCC(CN2CCN(c3ccc(C(=O)NS(=O)(=O)c4ccc(NCC5CCOCC5)c([N+](=O)[O-])c4)c(Oc4cnc5[nH]ccc5c4)c3)CC2)=C(c2ccc(Cl)cc2)C1 + CNC(=O)c1ccc(Nc2nc(OC3CCCC3)c3c(-c4ccc5nc(C)oc5c4)c[nH]c3n2)c(OC)c1

1: 7.11; 2: 1.78; 3: 10.2; 4: 13.6; 5: 5.66

----------
system: 876862-298-R-J1-PDC complex spheroids, viability % test/control; assay: Anticancer human tumor 876862-298-R-J1-PDC cell line growth inhibition [CLK]; conditions: second compound 3.16 µM; first compound 0.0316 µM; stronger effect = lower value;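 note: spheroids exposed to drugs for 7 days before readout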;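 for viability, T/C: 100% = DMSO vehicle control wells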
Provide the reported viability, T/C of each item.
Numbers only, in %.

Nc1ccccc1NC(=O)c1ccc(CNC(=O)OCc2cccnc2)cc1 + CNC(=O)c1ccc(Nc2nc(OC3CCCC3)c3c(-c4ccc5nc(C)oc5c4)c[nH]c3n2)c(OC)c1	25
CC(Nc1ccc2c(c1)OCCn1cc(N3C(=O)OCC3C(F)F)nc1-2)C(N)=O (stereo not given) + CNC(=O)c1ccc(Nc2nc(OC3CCCC3)c3c(-c4ccc5nc(C)oc5c4)c[nH]c3n2)c(OC)c1	20.1
O=c1[nH]cc(F)c(=O)[nH]1 + CNC(=O)c1ccc(Nc2nc(OC3CCCC3)c3c(-c4ccc5nc(C)oc5c4)c[nH]c3n2)c(OC)c1	25
O=C(c1cc(Cc2n[nH]c(=O)c3ccccc23)ccc1F)N1CCN(C(=O)C2CC2)CC1 + CNC(=O)c1ccc(Nc2nc(OC3CCCC3)c3c(-c4ccc5nc(C)oc5c4)c[nH]c3n2)c(OC)c1	25.5

Please turn your attention to the following entry.
Lab note: need viability, T/C with 876862-298-R-J1-PDC complex spheroids, viability % test/control for entry COc1ccc([C@@H](O)c2cc(-c3ncnc4cc(N5CCOCC5)ccc34)c(F)cc2Cl)nn1 + CNC(=O)c1ccc(Nc2nc(OC3CCCC3)c3c(-c4ccc5nc(C)oc5c4)c[nH]c3n2)c(OC)c1 , please look it up.
25

----------
system: 876862-298-R-J1-PDC complex spheroids, viability % test/control; assay: Anticancer human tumor 876862-298-R-J1-PDC cell line growth inhibition [CLK]; settings: second compound 1 µM; first compound 0.316 µM; stronger effect = lower value;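 note: spheroids exposed to drugs for 7 days before readout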;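 for viability, T/C: 100% = DMSO vehicle control wells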
Provide the reported viability, T/C of each item.
Give bare numbers, in %.

Consider the worked cases shown below.
CC1COCCN1c1cc(C2(S(C)(=N)=O)CC2)nc(-c2ccnc3[nH]ccc23)n1 (stereo unspecified) + CN1CCN(c2cc(C(=O)Nc3cc4cc(-c5cnn(C)c5)ccc4cn3)ccn2)CC1	0.8
Nc1ccn(C2OC(CO)C(O)C2(F)F)c(=O)n1 (stereo unspecified) + CN1CCN(c2cc(C(=O)Nc3cc4cc(-c5cnn(C)c5)ccc4cn3)ccn2)CC1	1.16
CCc1c2c(nc3ccc(O)cc13)-c1cc3c(c(=O)n1C2)COC(=O)[C@]3(O)CC + CNC(=O)c1ccc(Nc2nc(OC3CCCC3)c3c(-c4ccc5nc(C)oc5c4)c[nH]c3n2)c(OC)c1	3.64
Nc1ccn(C2OC(CO)C(O)C2(F)F)c(=O)n1 (stereo unspecified) + CNC(=O)c1ccc(Nc2nc(OC3CCCC3)c3c(-c4ccc5nc(C)oc5c4)c[nH]c3n2)c(OC)c1	6.7
O=c1[nH]cc(F)c(=O)[nH]1 + CNC(=O)c1ccc(Nc2nc(OC3CCCC3)c3c(-c4ccc5nc(C)oc5c4)c[nH]c3n2)c(OC)c1	32.5
CC(Nc1ccc2c(c1)OCCn1cc(N3C(=O)OCC3C(F)F)nc1-2)C(N)=O (stereo unspecified) + CN1CCN(c2cc(C(=O)Nc3cc4cc(-c5cnn(C)c5)ccc4cn3)ccn2)CC1	1.03
CC(=O)O[C@H]1C(=O)[C@@]2(C)[C@H]([C@H](OC(=O)c3ccccc3)[C@]3(O)C[C@H](OC(=O)[C@H](O)[C@@H](NC(=O)c4ccccc4)c4ccccc4)C(C)=C1C3(C)C)[C@]1(OC(C)=O)CO[C@@H]1C[C@@H]2O + CNC(=O)c1ccc(Nc2nc(OC3CCCC3)c3c(-c4ccc5nc(C)oc5c4)c[nH]c3n2)c(OC)c1	33.2
COc1cccc2c1C(=O)c1c(O)c3c(c(O)c1C2=O)CC(O)(C(=O)CO)CC3OC1CC(N)C(O)C(C)O1 (stereo unspecified) + CNC(=O)c1ccc(Nc2nc(OC3CCCC3)c3c(-c4ccc5nc(C)oc5c4)c[nH]c3n2)c(OC)c1	4.62

Items follow; give viability, T/C for each.
1. O=C(c1cc(Cc2n[nH]c(=O)c3ccccc23)ccc1F)N1CCN(C(=O)C2CC2)CC1 + CNC(=O)c1ccc(Nc2nc(OC3CCCC3)c3c(-c4ccc5nc(C)oc5c4)c[nH]c3n2)c(OC)c1
2. C=C(F)C(=O)N1CCN(c2nc(OCC3CCCN3C)nc3c2CCN(c2cccc4cccc(Cl)c24)C3)CC1CC#N (stereo unspecified) + CN1CCN(c2cc(C(=O)Nc3cc4cc(-c5cnn(C)c5)ccc4cn3)ccn2)CC1
3. O=C(c1cc(Cc2n[nH]c(=O)c3ccccc23)ccc1F)N1CCN(C(=O)C2CC2)CC1 + CN1CCN(c2cc(C(=O)Nc3cc4cc(-c5cnn(C)c5)ccc4cn3)ccn2)CC1

29.6
0.91
0.79

From: PubChem BioAssay AID2060607
